Entries and their composite z-score
# system: Follistatin (Homo sapiens)
# assay: follistatin binders on small-molecule microarrays, primary screen, biochemical, small-molecule microarray, 635/667 nm fluorescence (AID 1132)
# protocol_conditions: FST binding, 635 nm fluorescence, higher = more signal
measured_metric: composite z-score

molecule	system	measured_metric	measured_result
[N-]=[N+]=NCc1ccccc1C[C@@]1(C(=O)NCC(O)CO)N=C(c2ccc(OCCCO)cc2)O[C@@H]1c1ccccc1N=[N+]=[N-] (stereo not given in full)	Follistatin (Homo sapiens)	composite z-score	1.38
C=CC[C@]1(C(=O)N2CCCCC2)N=C(c2ccc(OCCCO)cc2)O[C@H]1c1ccccc1	Follistatin (Homo sapiens)	composite z-score	1.3
CCOC(=O)C[C@H]1[C@H](OC(=O)Cc2ccc3c(c2)OCO3)[C@@H](NC(=O)c2ccc3ccccc3c2)c2cc(OCCCO)ccc2N1C(=O)c1ccccc1	Follistatin (Homo sapiens)	composite z-score	0.375
CC1CC/C=C\[C@H]2OC34C=CCN(Cn5nnc6ccccc65)C(=O)[C@H]3N(C(CO)C(C)C)C(=O)[C@@H]4C2C(=O)O1 (stereo not given in full)	Follistatin (Homo sapiens)	composite z-score	-0.311
C=CCOC(=O)[C@@H]1[C@H]2C(=O)O[C@H](c3ccccc3)[C@H](c3ccccc3)N2[C@H](c2ccc(OCCOC(=O)[C@@H]3C[C@@H]4C(=O)N[C@@H](Cc5ccccc5)C(=O)N4[C@@H]3c3ccc(O)cc3)cc2)[C@@]12C(=O)Nc1ccc(I)cc12	Follistatin (Homo sapiens)	composite z-score	1.41

====

# assay: A549 lung cancer cell viability effects, profiling panel, resazurin fluorescence, 24 h, PK04 Diversity Set (AID 1171); further: test concentration not given here
# protocol_conditions: higher = more signal, called active from +8 up or from −8 down
Active and inactive are the calls of the source.
measured_metric: z-score

compound	measured_result
COc1ccc(C(O)C2C=CC3C(=O)N(C)C(=O)C3N2N2CCCCC2)c2ccccc12 (stereo not given)	-0.825 (inactive)
[N-]=[N+]=Nc1ccccc1C[C@]1(C(=O)NCC(O)CO)N=C(c2ccc(OCCCO)cc2)O[C@H]1c1ccccc1N=[N+]=[N-] (stereo not given in full)	-1.19 (inactive)
COC(=O)[C@@]1(Cc2ccc(OC)cc2)[C@H]2c3cc(C(=O)N(C)C)n(CCN4CNCC4=O)c3C[C@H]2CN1C(=O)c1ccccc1	0.367 (inactive)
O=C1[C@H]2C=C(Br)[C@H](C[C@@H]2OCCCCO)[C@@]12CO2	-0.621 (inactive)
C=CCNC(=O)[C@H]1[C@@H]2C(=O)O[C@@H](c3ccccc3)[C@@H](c3ccccc3)N2[C@@H](c2ccc(O)cc2)[C@]12C(=O)N(C(=O)OCCOC)c1ccc(C#CCNC(N)=O)cc12	-0.157 (inactive)
CCCC=C(CCC)[C@@H](NS(=O)(=O)c1cccs1)c1ccc(C(=O)OC)cc1	4.56 (inactive)
COCCOC(=O)N1C(=O)[C@@]2(c3cc(C#Cc4ccc(OC)cc4)ccc31)[C@H](c1ccc(O)cc1)N1[C@H](c3ccccc3)[C@H](c3ccccc3)OC(=O)[C@H]1[C@@H]2C(=O)NC[C@H](O)c1ccccc1	0.123 (inactive)
CC(CO)N1C(=O)[C@@H]2C3C(=O)OCCC/C=C\[C@H]3OC23C=CCN(c2ccc4ccccc4c2)C(=O)[C@@H]13 (stereo not given in full)	0.315 (inactive)
C=C(/C(=C/C[C@@H](OC(C)=O)c1ccc(OCCO)cc1)c1cnc2ccccc2c1)C(C)C	0.685 (inactive)
CC1CC/C=C\[C@H]2OC34C=CCN(c5ccc(Cl)cc5)C(=O)[C@H]3N(CCO)C(=O)[C@]4(C)C2C(=O)O1 (stereo not given in full)	-0.428 (inactive)

====

# system: NADPH oxidase 2 (Homo sapiens) (UniProt P04839)
# Sequence (P04839 whole entry, looked up): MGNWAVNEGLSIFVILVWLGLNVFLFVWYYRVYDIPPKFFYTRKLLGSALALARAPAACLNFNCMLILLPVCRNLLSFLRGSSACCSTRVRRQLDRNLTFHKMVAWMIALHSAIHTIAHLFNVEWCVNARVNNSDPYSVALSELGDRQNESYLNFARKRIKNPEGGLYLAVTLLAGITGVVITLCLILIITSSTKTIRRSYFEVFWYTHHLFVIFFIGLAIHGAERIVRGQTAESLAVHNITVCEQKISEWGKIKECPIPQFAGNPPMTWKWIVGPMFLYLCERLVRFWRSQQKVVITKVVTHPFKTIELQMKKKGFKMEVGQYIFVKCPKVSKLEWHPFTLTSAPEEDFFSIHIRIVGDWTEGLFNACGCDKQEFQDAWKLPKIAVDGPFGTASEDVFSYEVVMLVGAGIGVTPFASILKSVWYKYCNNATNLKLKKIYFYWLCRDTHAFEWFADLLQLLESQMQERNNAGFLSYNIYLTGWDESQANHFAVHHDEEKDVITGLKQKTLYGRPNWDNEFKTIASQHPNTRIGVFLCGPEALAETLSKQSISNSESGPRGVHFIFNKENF
# assay: NOX2-dependent H2O2 signal modulators, primary screen, NOX inhibitor project, cell-based, HEK293-NOX2, PMA-stimulated, Amplex Red fluorescence (AID 1159); further: test concentration not given here
# protocol_conditions: 45 min, higher = more signal, called active from +8 up or from −8 down
Output schema: class label derived from z-score. Mapping: low (below -1), moderate (-1 to below 0.8), high (0.8 or more)

molecule	system	classification
C=C(CCCC)C(=O)CC[C@@H](OC(=O)c1cccnc1)c1ccc(CO)o1	NADPH oxidase 2 (Homo sapiens) (UniProt P04839)	moderate
C=CCOC(=O)[C@@H]1[C@H]2C(=O)O[C@H](c3ccccc3)[C@H](c3ccccc3)N2[C@H](c2ccc(OCCOC(=O)[C@@H]3C[C@@H]4C(=O)N[C@@H](CCCCN(C)C)C(=O)N4[C@@H]3c3ccc(O)cc3)cc2)[C@@]12C(=O)Nc1ccc(I)cc12	NADPH oxidase 2 (Homo sapiens) (UniProt P04839)	high
CN1C(=O)C2C=CC(C(O)c3cccs3)N(Nc3ccccc3)C2C1=O (centres undefined)	NADPH oxidase 2 (Homo sapiens) (UniProt P04839)	low
COc1ccc(C(=O)O[C@H]2CC[C@]3(C)C4=C(CCC3C2(C)C)[C@]2(C)CC[C@H]([C@H](C)CCCC(C)C)[C@@]2(C)CC4)cc1 (some centres undefined)	NADPH oxidase 2 (Homo sapiens) (UniProt P04839)	moderate
COC(=O)[C@@]1(Cc2ccccc2)[C@H]2c3cc(C(=O)N4CCCC4)n(CC4CC4)c3C[C@H]2CN1C(=O)c1ccccc1	NADPH oxidase 2 (Homo sapiens) (UniProt P04839)	moderate
[N-]=[N+]=NCc1ccccc1[C@@H]1OC(c2ccc(OCCCO)cc2)=N[C@]1(Cc1ccccc1N=[N+]=[N-])C(=O)N1CCOCC1	NADPH oxidase 2 (Homo sapiens) (UniProt P04839)	low
CCC(CC)C(O)C1C=CC2C(=O)N(C)C(=O)C2N1Nc1ccccc1 (centres undefined)	NADPH oxidase 2 (Homo sapiens) (UniProt P04839)	low
CN(C)C(=O)[C@@]1(Cc2ccccc2)N=C(c2ccc(OCCCO)cc2)O[C@H]1c1ccccc1N=[N+]=[N-]	NADPH oxidase 2 (Homo sapiens) (UniProt P04839)	low
Cc1ccc(S[C@]2(C(=O)NC(C)C)CC(=O)N(Cc3ccccc3Cl)[C@@H]2c2ccc(CO)cc2I)cc1	NADPH oxidase 2 (Homo sapiens) (UniProt P04839)	moderate
Cc1ccc(S[C@]2(C(=O)NCC(F)(F)F)CC(=O)N(C(C)C)[C@@H]2c2ccc(CO)cc2I)cc1	NADPH oxidase 2 (Homo sapiens) (UniProt P04839)	high
CCCC[C@H]1OB(O)C[C@H]2C1=C(COc1ccccc1)C[C@H]1C(=O)N(C)C(=O)[C@H]12	NADPH oxidase 2 (Homo sapiens) (UniProt P04839)	moderate
O=C1OCCC/C=C\[C@H]2OC34C=CCN(Cc5ccccc5)C(=O)[C@H]3N(CCCCCCO)C(=O)[C@@H]4C12 (some centres undefined)	NADPH oxidase 2 (Homo sapiens) (UniProt P04839)	high
CN1C(=O)C2C=CC(C(O)c3ccccc3)N(Nc3ccccc3)C2C1=O (centres undefined)	NADPH oxidase 2 (Homo sapiens) (UniProt P04839)	low
CC1CC/C=C\[C@H]2OC34C=CCN(C(C)(C)C)C(=O)[C@H]3N(CCCCCCO)C(=O)[C@@H]4C2C(=O)O1 (some centres undefined)	NADPH oxidase 2 (Homo sapiens) (UniProt P04839)	high

====

# assay: PSAC antagonists in infected red cells, primary screen, cell-based, P. falciparum Indochina, OD700, 18 h (AID 1157)
# protocol_conditions: P. falciparum Indochina infected erythrocytes, osmotic lysis OD700, 18 h; higher = more signal, called active from +8 up or from −8 down
Assign class by z-score: not lower than 0.4 means Y; lower than 0.4 means N.

compound	classification
COc1ccc(CCN2C(=O)[C@@]3(c4ccc([N+](=O)[O-])cc4)CC(=O)N(C4CCCCC4)[C@@H]3c3ccc(CO)cc32)cc1	N
CN1C(=O)C2C=CC(C(O)C3CC=CCC3)N(NC(=O)OC(C)(C)C)C2C1=O (stereo unspecified)	N
CCCC#C[Si](O[C@H](CC)c1cn([C@H](CO)Cc2ccccc2)nn1)(C(C)C)C(C)C	Y
C=CCN1C(=O)[C@@]2(O[C@@H](CCO)[C@H]([Si](C)(C)c3ccc(OC)cc3)[C@H]2C)c2cc(NC(=O)c3ccc(OC)cc3)ccc21	Y
O=C1c2ccccc2[C@](Cc2ccccc2I)(C(=O)NC2CC2)[C@H](c2ccc(CO)cc2)N1Cc1ccccc1	N
NCCCCCNC(=O)[C@@H]1C[C@@H]2C(=O)N[C@@H](Cc3ccccc3)C(=O)N2[C@@H]1c1cccc(OCCO)c1	N
CC(=O)NCCCC[C@@H]1NC(=O)[C@@H]2C[C@H](C(=O)NCCCCN(C)C)[C@H](c3cccc(OCCO)c3)N2C1=O	N
CC(C)(C)OC(=O)CC[C@]12N=C(c3ccc(OCCCO)cc3)O[C@H]1c1ccccc1N(CCS(=O)(=O)c1ccccc1)C2=O	Y
O=C(c1ccccc1)N1Cc2ccccc2[C@@H]2OC(c3ccc(OCCCO)cc3)=N[C@]2(Cc2ccccc2)C1=O	Y
COCCOC(=O)N1C(=O)[C@@]2(c3cc(C#Cc4ccc(OC)cc4)ccc31)[C@H](C(=O)N1CCCCCCC1)[C@H]1C(=O)O[C@H](c3ccccc3)[C@H](c3ccccc3)N1[C@@H]2c1ccc(OCCO)cc1	Y
O=C1OCC=C[C@H]2OC34C=CCN(c5ccc6ccccc6c5)C(=O)[C@H]3N(CCCCCCO)C(=O)[C@@H]4[C@@H]12 (stereo partly specified)	Y

These entries and their values trace back to PubChem BioAssay.
